The origin of these recorded values is patent US10344026B2.

Please go through the items and note down their IC50.
Target: wild type K-Ras (Homo sapiens, UniProt P01116)
Construct: expressed in transfected cells; host or cells: 293H cells
Sequence (P01116 whole entry): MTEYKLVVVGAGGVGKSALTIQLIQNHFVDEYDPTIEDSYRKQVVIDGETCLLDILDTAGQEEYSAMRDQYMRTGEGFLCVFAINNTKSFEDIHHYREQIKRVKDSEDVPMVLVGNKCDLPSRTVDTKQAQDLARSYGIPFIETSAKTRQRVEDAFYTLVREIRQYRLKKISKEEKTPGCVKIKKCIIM
Experiment: G-LISA Ras activation, 293H cells transfected with Ras wild-type, EGF stimulated
Type: cell-based
Conditions: compound 1 hour, then 100 ng/ml EGF 2 minutes
Kindly provide the numeric value in µM only, without the unit symbol.

Give its IC50 value. Item: Cc1nn(C)cc1C(=O)Nc1nc(-c2ccc3c(c2)CCC(=O)N3)cs1
17.1

# lookup: IC50 of Cc1nn(C(C)C)c(C)c1C(=O)Nc1nc(-c2ccc3c(c2)CCC(=O)N3)cs1
13.9

Param item = COC(=O)CCN1C(=O)CCc2cc(-c3csc(NC(=O)c4oc(C)nc4C)n3)ccc21 ; retrieve measured IC50.
10.2

# lookup: IC50 of Cc1nc(C2CC2)oc1C(=O)Nc1nc(-c2ccc3c(c2)CCC(=O)N3Cc2cccnc2)cs1
8

Need IC50, item Cc1nn(C)cc1C(=O)Nc1nc(-c2ccc3c(c2)CCC(=O)N3Cc2cccnc2)cs1
10.7

Quick one: IC50 of Cc1nc(C(C)C)oc1C(=O)Nc1nc(-c2ccc3c(c2)CCC(=O)N3)cs1 ?
11.7

Fill in: IC50 of COc1cccc(CN2C(=O)CCc3cc(-c4csc(NC(=O)c5oc(C)nc5C)n4)ccc32)c1OC is ___
10

Please report the recorded IC50 for Cc1nn(Cc2ccccc2)c(C)c1C(=O)Nc1nc(-c2ccc3c(c2)CCC(=O)N3)cs1 .
19.2

Any idea what its IC50 is? The compound is COc1cccc(CN2C(=O)CCc3cc(-c4csc(NC(=O)c5oc(C)nc5C)n4)ccc32)c1
12.6

Reported IC50 for Cc1nc(C)c(C(=O)Nc2nc(-c3ccc4c(c3)CCC(=O)N4)cs2)o1 : what is it?
25.1

Can you look up the measured IC50 of Cc1nc(C)c(C(=O)Nc2nc(-c3ccc4c(c3)CCC(=O)N4C3CCCC3)cs2)o1 for me?
18.6

Query (compound): CCc1nc(C)c(C(=O)Nc2nc(-c3ccc4c(c3)CCC(=O)N4)cs2)o1 ; field requested: IC50
14.1

// lookup IC50 for Cc1nc(C2CCC2)oc1C(=O)Nc1nc(-c2ccc3c(c2)CCC(=O)N3Cc2cccnc2)cs1
15.2

Would you kindly share the measured IC50 for CCc1nc(C)c(C(=O)Nc2nc(-c3ccc4c(c3)CCC(=O)N4Cc3cccnc3)cs2)s1 ?
9.6

Which IC50 is reported for this compound? COC(=O)CCCN1C(=O)CCc2cc(-c3csc(NC(=O)c4oc(C)nc4C)n3)ccc21
9.5

Which IC50 reading was recorded for the compound COCCN1C(=O)CCc2cc(-c3csc(NC(=O)c4c(C)nn(C)c4C)n3)ccc21 ?
11.9

What value of IC50 has been reported for the following compound? Cc1nc(C(C)C)sc1C(=O)Nc1nc(-c2ccc3c(c2)CCC(=O)N3)cs1
12

For the compound shown here, Cc1nn(C)c(C)c1C(=O)Nc1nc(-c2ccc3c(c2)CCC(=O)N3)cs1 , give the reported IC50.
23.3

May I ask what IC50 has been recorded for Cc1nc(C)c(C(=O)Nc2nc(-c3ccc4c(c3)CCC(=O)N4Cc3cccc(N)c3)cs2)o1 ?
16.6

Which IC50 reading was recorded for the compound CCn1cc(C(=O)Nc2nc(-c3ccc4c(c3)CCC(=O)N4Cc3cccnc3)cs2)c(C)n1 ?
6.3
